Tested on: NCI-H23 lung
Test: NCI tumour cell line growth inhibition, 48 h
Measured Quantity: TGI

Prompt line: Provide one value: measured TGI of `CC1(C)CC(=O)C2=C(C1)NC1=C(C(=O)CC(C)(C)C1)C2c1ccc([N+](=O)[O-])cc1`
Response line: > 100 µM

Prompt line: Provide one value: measured TGI of COc1ccc(C(=O)C(c2ccc(OC)cc2)C2OC(=O)C(Cl)=C2Cl)cc1 (stereo not drawn)
Response line: > 100 µM

Prompt line: Provide one value: measured TGI of `O=C(c1ccccc1)c1oc2ccc(Br)cc2c1-c1cnn(-c2ccccc2)c1`
Response line: > 100 µM

Prompt line: Provide one value: measured TGI of `O=C(/C=N/O)Nc1cc(Cl)c(Cl)cc1Cl`
Response line: 86.6 µM

Prompt line: Provide one value: measured TGI of COc1cc(/C=C2/SC(c3ccccc3)N(c3ccccc3)C2=O)cc(OC)c1OC (stereo not drawn)
Response line: > 100 µM

Prompt line: Provide one value: measured TGI of `COc1cc(O)c2c(c1)C(=O)C=C(Cl)C2=O`
Response line: > 100 µM

Prompt line: Provide one value: measured TGI of O=C1N2CCc3c([nH]c4ccccc34)C23CC2CCCCC12S3 (stereo not drawn)
Response line: > 100 µM

Prompt line: Provide one value: measured TGI of CN1C(c2ccccc2)CS(=O)(=O)CS1(=O)=O (stereo not drawn)
Response line: > 100 µM

Prompt line: Provide one value: measured TGI of `O=[N+]([O-])/C=C/c1cc2ccccc2[nH]1`
Response line: 30.2 µM

Prompt line: Provide one value: measured TGI of `CCCCSC1=N/C(=C\c2ccc(N(C)C)cc2)C(NN)=N1`
Response line: > 100 µM

Prompt line: Provide one value: measured TGI of `CC(C)OP(=O)(OC(C)C)/C(C#N)=C/c1ccco1`
Response line: > 100 µM

Prompt line: Provide one value: measured TGI of `COC1=CC(=O)C(OC)=C(OC)C1=O`
Response line: 30 µM

Prompt line: Provide one value: measured TGI of `CCOC(=O)Cc1csc2[n+]1C(=O)/C(=C/c1cccc(OC)c1O)S2`
Response line: > 100 µM

Prompt line: Provide one value: measured TGI of `O=C(O)CNc1ccc(C(=O)O)cc1`
Response line: > 100 µM

Prompt line: Provide one value: measured TGI of `O=C(Nc1cccc(Cc2cccc(NC(=O)c3ccccc3)c2)c1)c1ccccc1`
Response line: > 100 µM

Prompt line: Provide one value: measured TGI of C=C1C(=O)OC2/C=C(/C)C3CC(O)C(C)(CC(OC(=O)/C(C)=C/C)C12)O3 (stereo not drawn)
Response line: 16.9 µM

Prompt line: Provide one value: measured TGI of COc1ccc(/C=C2\CCC(C)/C(=C\c3ccc(OC)c(OC)c3)C2=O)cc1OC (stereo not drawn)
Response line: 15.6 µM

Prompt line: Provide one value: measured TGI of Nc1ncc(Cl)c(NCC2(CO)CC(CCc3ccccc3)C2)n1 (stereo not drawn)
Response line: > 100 µM

----------
Provide the recorded GI50 for the entries that follow.
Test system: HT29 colon
Assay: NCI tumour cell line growth inhibition, 48 h

Prompt line: Provide one value: measured GI50 of `S=C(Nc1ccc(Cl)cc1)Nc1ccc(-c2nc3ccccc3o2)cc1`
Response line: 17.4 µM

Prompt line: Provide one value: measured GI50 of `O=[N+]([O-])c1ccccc1NC1c2ccccc2Oc2ccccc21`
Response line: 3.83 µM

Prompt line: Provide one value: measured GI50 of `COC1=CC(=O)C(OC)=C(OC)C1=O`
Response line: 22.5 µM

Prompt line: Provide one value: measured GI50 of `CCCCCCCCCc1cc[n+](CC(=O)c2ccc([N+](=O)[O-])cc2)cc1`
Response line: 0.313 µM

Prompt line: Provide one value: measured GI50 of `Cc1nccc2c3ccc(OCc4cn(-c5ccc(Cl)cc5)nn4)cc3n(CCCc3ccccc3)c12`
Response line: 3.07 µM

Prompt line: Provide one value: measured GI50 of `CS(=O)(=O)CCNCc1ccc(-c2ccc3ncnc(Nc4ccc(OCc5cccc(F)c5)c(C(F)(F)F)c4)c3c2)o1`
Response line: 4.54 µM

Prompt line: Provide one value: measured GI50 of `O=C(O)CCC/C=C\C[C@H]1C=CC(=O)/C1=C/C[C@@H](O)CCc1cccc(C(F)(F)F)c1`
Response line: 2.69 µM

Prompt line: Provide one value: measured GI50 of `COC(=O)c1c(O)c([N+](=O)[O-])cc2c1c1c(n2Cc2ccccc2)C(=O)c2ccccc2C1=O`
Response line: 18.9 µM

Prompt line: Provide one value: measured GI50 of Nc1nc2cc3ccc(C4CC(O)C(CO)O4)cc3cc2c(=O)[nH]1 (stereo not given)
Response line: > 100 µM

Prompt line: Provide one value: measured GI50 of CCN(CC)CCCC(C)Nc1nc(C)cc(Nc2ccc3nc(C)cc(N)c3c2)n1 (stereo not given)
Response line: 24.4 µM
